Readings of inhibition at 0.1 µM for the listed molecules
# targetEntity: BTK (Homo sapiens)
# Construct: purchased Reaction Biology Corporation
# Sequence (Q06187 whole entry): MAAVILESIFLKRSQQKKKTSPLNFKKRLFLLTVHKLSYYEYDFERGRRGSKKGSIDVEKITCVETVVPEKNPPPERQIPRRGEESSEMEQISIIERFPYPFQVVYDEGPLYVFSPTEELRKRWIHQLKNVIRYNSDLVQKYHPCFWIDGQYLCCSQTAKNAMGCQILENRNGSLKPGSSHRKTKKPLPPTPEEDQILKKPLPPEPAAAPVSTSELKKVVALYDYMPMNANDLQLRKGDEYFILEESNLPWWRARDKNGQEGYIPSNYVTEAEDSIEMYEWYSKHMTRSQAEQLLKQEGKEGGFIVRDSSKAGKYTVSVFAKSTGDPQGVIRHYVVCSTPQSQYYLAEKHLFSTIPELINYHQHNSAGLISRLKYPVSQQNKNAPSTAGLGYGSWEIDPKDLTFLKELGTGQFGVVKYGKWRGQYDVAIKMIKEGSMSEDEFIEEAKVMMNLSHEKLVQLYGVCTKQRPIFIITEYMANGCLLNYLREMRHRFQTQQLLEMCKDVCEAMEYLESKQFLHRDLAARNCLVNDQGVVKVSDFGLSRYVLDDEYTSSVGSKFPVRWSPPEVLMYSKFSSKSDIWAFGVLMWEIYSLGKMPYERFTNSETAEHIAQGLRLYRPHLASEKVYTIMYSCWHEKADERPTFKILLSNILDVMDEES
# assayRemarks: BTK kinase profiling, HotSpot radiometric assay (Reaction Biology)
# Assay type: biochemical
# experimentalConditions: compound 0.1 μM; ATP 10 μM; read-out: BTK @ 0.1 μM (% Inh)
propertyName: inhibition at 0.1 µM (%)

[
  {
    "testSmiles": "C=CC(=O)N(CCn1nc(-c2cc(O)c(F)c(F)c2)c2c(N)ncnc21)Cc1ccc(Cl)cc1",
    "propertyName": "inhibition at 0.1 µM",
    "recordedMeasurement": 93.8
  },
  {
    "testSmiles": "C=CC(=O)N(CCn1nc(-c2cc(O)cc(F)c2)c2c(N)ncnc21)Cc1ccc(Cl)cc1",
    "propertyName": "inhibition at 0.1 µM",
    "recordedMeasurement": 94.4
  },
  {
    "testSmiles": "C=CC(=O)N(CCn1nc(-c2cc(F)cc(OC(C)=O)c2)c2c(N)ncnc21)Cc1ccccc1",
    "propertyName": "inhibition at 0.1 µM",
    "recordedMeasurement": 47.3
  },
  {
    "testSmiles": "C=CC(=O)N(CCn1nc(-c2ccc(Cl)c(O)c2)c2c(N)ncnc21)Cc1ccc(F)cc1",
    "propertyName": "inhibition at 0.1 µM",
    "recordedMeasurement": 96.1
  },
  {
    "testSmiles": "Nc1ncnc2c1c(-c1cc(O)cc(F)c1)nn2CCN(Cc1ccccc1)C(=O)C1CC1",
    "propertyName": "inhibition at 0.1 µM",
    "recordedMeasurement": 9.54
  },
  {
    "testSmiles": "C=CC(=O)N(CCn1nc(-c2ccc(Cl)c(O)c2)c2c(N)ncnc21)Cc1ccco1",
    "propertyName": "inhibition at 0.1 µM",
    "recordedMeasurement": 95.4
  },
  {
    "testSmiles": "C=CC(=O)N(CCn1nc(-c2ccc(Oc3ccccc3)cc2)c2c(N)ncnc21)Cc1ccccc1",
    "propertyName": "inhibition at 0.1 µM",
    "recordedMeasurement": 96.7
  },
  {
    "testSmiles": "Nc1ncnc2c1c(-c1cc(O)c(F)c(F)c1)nn2CCNCc1cccnc1",
    "propertyName": "inhibition at 0.1 µM",
    "recordedMeasurement": 60.5
  }
]

---

# targetEntity: PI3Kβ (Homo sapiens, UniProt P42338)
# Construct: purchased Reaction Biology Corporation
# Sequence (P42338 whole entry): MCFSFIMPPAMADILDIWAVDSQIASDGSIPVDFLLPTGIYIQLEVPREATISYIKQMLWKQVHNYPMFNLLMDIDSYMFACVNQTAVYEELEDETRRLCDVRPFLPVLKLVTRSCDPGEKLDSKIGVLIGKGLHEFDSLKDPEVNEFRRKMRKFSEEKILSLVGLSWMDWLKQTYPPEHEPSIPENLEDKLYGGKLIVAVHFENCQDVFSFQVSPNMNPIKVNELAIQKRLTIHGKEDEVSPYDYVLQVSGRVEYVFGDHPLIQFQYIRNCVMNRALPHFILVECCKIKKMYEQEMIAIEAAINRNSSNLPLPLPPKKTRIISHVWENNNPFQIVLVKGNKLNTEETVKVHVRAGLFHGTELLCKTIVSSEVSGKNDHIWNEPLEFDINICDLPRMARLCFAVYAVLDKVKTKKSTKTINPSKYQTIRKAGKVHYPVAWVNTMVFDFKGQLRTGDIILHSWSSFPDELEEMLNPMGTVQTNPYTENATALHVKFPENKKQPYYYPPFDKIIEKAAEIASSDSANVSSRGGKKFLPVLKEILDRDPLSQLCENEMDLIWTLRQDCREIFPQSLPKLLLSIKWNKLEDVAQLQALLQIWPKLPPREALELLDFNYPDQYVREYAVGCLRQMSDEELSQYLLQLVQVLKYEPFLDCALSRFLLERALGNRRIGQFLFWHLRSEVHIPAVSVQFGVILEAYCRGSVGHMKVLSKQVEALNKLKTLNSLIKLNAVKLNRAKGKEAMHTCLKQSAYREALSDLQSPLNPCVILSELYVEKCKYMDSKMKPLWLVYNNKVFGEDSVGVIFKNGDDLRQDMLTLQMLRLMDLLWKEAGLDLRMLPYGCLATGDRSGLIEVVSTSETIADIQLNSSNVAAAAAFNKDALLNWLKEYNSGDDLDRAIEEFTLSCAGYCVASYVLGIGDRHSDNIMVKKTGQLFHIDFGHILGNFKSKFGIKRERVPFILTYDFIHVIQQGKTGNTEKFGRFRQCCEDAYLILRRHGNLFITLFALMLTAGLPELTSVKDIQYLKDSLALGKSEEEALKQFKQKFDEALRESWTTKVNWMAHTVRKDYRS
# Sequence (P27986 whole entry partner): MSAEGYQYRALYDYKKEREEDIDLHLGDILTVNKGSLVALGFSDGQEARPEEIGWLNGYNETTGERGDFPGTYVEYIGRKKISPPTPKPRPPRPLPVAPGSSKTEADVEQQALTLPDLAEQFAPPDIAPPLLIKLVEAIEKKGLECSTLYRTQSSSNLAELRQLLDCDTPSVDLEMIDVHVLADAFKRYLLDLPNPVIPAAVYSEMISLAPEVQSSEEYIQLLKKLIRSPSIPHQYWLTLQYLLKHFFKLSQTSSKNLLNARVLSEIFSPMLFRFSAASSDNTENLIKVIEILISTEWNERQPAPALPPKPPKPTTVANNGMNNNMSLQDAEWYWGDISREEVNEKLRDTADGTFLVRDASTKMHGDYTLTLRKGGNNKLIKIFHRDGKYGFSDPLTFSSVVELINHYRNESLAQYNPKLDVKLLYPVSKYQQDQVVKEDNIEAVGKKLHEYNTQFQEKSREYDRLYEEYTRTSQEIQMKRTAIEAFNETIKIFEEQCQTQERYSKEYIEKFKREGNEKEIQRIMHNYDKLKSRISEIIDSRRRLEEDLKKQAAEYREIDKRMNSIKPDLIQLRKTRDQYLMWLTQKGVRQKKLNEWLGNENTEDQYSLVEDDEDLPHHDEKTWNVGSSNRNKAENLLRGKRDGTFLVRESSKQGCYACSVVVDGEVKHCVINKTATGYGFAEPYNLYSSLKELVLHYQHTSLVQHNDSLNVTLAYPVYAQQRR
# assayRemarks: PI3K isoform profiling, PI3Kβ (PI3Kδ protocol)
# Assay type: biochemical
# experimentalConditions: compound 0.3 μM; read-out: PI3Kβ @ 0.3 μM (% Inh)
# Excerpt: PI3Kδ assay: The PIP3 product is detected by displacement of biotin-PIP3 from an energy transfer complex consisting of Europium labeled anti-GST monoclonal antibody, a GST-tagged pleckstrin homology (PH) domain, biotinylated PIP3 and Streptavidin-Allophycocyanin (APC). Excitation of Europium in the complex results in an energy transfer to the APC and a fluorescent emission at 665 nm. […]

[
  {
    "testSmiles": "C=CC(=O)N(CCn1nc(-c2cc(O)cc(F)c2)c2c(N)ncnc21)Cc1ccccc1",
    "readingUnit": "%",
    "inhibition at 0.3 µM": 45.8
  },
  {
    "testSmiles": "C=CC(=O)N(CCn1nc(-c2cc(O)cc(F)c2)c2c(N)ncnc21)c1ccccc1",
    "readingUnit": "%",
    "inhibition at 0.3 µM": 30.4
  },
  {
    "testSmiles": "Nc1ncnc2c1c(-c1cc(O)cc(F)c1)nn2CCNc1ccccc1",
    "readingUnit": "%",
    "inhibition at 0.3 µM": 62
  },
  {
    "testSmiles": "C=CC(=O)N(CCn1nc(-c2cc(O)c(F)c(F)c2)c2c(N)ncnc21)Cc1ccc(Cl)cc1",
    "readingUnit": "%",
    "inhibition at 0.3 µM": 25.2
  },
  {
    "testSmiles": "C=CC(=O)N(CCn1nc(-c2cc(O)cc(F)c2)c2c(N)ncnc21)Cc1ccccc1F",
    "readingUnit": "%",
    "inhibition at 0.3 µM": 41
  },
  {
    "testSmiles": "C=CC(=O)N(CCn1nc(-c2cc(O)cc(F)c2)c2c(N)ncnc21)Cc1ccc(Cl)cc1",
    "readingUnit": "%",
    "inhibition at 0.3 µM": 31.3
  },
  {
    "testSmiles": "C=CC(=O)N(CCn1nc(-c2cc(O)cc(F)c2)c2c(N)ncnc21)Cc1ccc(F)cc1",
    "readingUnit": "%",
    "inhibition at 0.3 µM": 16.3
  }
]

---

# targetEntity: UniProt:P42336
# Sequence (P42336 whole entry, one chain of several, canonical isoform): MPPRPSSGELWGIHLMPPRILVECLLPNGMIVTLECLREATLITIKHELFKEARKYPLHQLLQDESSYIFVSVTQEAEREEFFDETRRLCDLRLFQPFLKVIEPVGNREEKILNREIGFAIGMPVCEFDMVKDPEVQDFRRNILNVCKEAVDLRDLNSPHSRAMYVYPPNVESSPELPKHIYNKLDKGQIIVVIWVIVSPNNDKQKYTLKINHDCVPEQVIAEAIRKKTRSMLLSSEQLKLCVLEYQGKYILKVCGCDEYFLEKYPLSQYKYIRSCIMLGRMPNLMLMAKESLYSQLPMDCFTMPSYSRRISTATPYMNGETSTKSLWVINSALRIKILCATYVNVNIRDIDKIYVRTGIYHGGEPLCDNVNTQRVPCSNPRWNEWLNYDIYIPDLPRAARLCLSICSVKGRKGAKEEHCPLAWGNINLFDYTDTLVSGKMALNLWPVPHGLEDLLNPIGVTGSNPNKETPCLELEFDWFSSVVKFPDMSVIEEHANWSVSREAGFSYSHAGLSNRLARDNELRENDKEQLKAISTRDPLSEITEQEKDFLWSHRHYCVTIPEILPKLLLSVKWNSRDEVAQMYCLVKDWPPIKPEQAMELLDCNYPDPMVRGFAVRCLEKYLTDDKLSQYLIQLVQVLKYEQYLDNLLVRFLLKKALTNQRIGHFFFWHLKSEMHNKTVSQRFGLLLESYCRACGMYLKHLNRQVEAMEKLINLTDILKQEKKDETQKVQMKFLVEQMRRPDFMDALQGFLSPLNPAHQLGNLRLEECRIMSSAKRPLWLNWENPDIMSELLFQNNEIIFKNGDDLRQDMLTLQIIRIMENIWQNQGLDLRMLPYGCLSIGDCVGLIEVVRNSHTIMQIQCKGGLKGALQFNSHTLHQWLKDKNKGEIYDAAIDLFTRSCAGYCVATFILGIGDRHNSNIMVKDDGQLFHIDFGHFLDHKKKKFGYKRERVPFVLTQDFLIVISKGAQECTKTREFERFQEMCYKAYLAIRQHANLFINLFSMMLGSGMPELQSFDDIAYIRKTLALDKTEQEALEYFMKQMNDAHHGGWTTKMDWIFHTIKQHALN
# assayRemarks: PI3K isoform profiling, PI3Kα (PI3Kδ protocol)
# experimentalConditions: 10 dose IC50

[
  {
    "testSmiles": "C=CC(=O)N(CCn1nc(-c2cc(O)c(F)c(F)c2)c2c(N)ncnc21)Cc1ccc(Cl)cc1",
    "readingUnit": "nM",
    "IC50": 290
  },
  {
    "testSmiles": "C=CC(=O)N(CCn1nc(-c2cc(O)cc(F)c2)c2c(N)ncnc21)Cc1ccccc1",
    "readingUnit": "nM",
    "IC50": 3320
  },
  {
    "testSmiles": "C=CC(=O)N(CCn1nc(-c2cc(O)cc(F)c2)c2c(N)ncnc21)Cc1ccc(Cl)cc1",
    "readingUnit": "nM",
    "IC50": 869
  }
]

---

# targetEntity: PI3Kδ (Homo sapiens)
# Construct: purchased Reaction Biology Corporation
# Sequence (O00329 whole entry, one chain of several): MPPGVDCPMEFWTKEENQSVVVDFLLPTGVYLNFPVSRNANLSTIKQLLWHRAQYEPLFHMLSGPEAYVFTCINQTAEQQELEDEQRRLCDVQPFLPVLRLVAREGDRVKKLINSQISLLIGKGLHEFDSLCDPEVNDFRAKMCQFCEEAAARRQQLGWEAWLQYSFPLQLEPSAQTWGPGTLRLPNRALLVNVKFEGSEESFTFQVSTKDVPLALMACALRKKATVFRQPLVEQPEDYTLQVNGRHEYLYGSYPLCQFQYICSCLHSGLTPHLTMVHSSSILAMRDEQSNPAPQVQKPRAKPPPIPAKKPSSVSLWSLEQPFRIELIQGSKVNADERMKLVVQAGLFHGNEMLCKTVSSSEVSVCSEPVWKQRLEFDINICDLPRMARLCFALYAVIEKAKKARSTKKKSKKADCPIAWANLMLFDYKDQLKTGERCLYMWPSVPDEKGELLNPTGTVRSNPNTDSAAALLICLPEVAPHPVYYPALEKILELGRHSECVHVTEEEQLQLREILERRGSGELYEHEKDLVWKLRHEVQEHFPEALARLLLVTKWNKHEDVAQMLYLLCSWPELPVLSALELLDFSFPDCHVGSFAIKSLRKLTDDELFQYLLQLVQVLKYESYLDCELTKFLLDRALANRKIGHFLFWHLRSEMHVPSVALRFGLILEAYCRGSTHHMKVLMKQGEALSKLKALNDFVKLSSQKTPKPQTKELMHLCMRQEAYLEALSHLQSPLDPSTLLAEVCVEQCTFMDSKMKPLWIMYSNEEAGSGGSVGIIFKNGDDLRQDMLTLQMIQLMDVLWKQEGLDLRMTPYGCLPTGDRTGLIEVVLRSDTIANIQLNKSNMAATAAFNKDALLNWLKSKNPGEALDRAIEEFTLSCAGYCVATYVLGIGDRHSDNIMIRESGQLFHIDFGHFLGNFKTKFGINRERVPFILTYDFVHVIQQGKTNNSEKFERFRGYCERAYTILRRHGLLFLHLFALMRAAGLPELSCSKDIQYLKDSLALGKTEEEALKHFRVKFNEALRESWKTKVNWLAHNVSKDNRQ
# assayRemarks: PI3Kδ kinase profiling, HTRF PIP3 displacement assay (Reaction Biology)
# Format: biochemical
# experimentalConditions: compound 0.1 μM; ATP 10 μM; read-out: PI3Kδ @ 0.1 μM (% Inh)

[
  {
    "molecule": "Nc1ncnc2c1c(-c1cc(O)cc(F)c1)nn2CCN(Cc1ccccc1)C(=O)C1CC1 [Compound 8]",
    "targetEntity": "PI3Kδ (Homo sapiens)",
    "inhibition at 0.1 µM [%]": 70
  },
  {
    "molecule": "C=CC(=O)N(CCn1nc(-c2ccc(Cl)c(O)c2)c2c(N)ncnc21)Cc1ccco1 [Compound 20]",
    "targetEntity": "PI3Kδ (Homo sapiens)",
    "inhibition at 0.1 µM [%]": 40.6
  },
  {
    "molecule": "C=CC(=O)N(CCn1nc(-c2cc(O)cc(F)c2)c2c(N)ncnc21)Cc1ccccc1 [Compound 5]",
    "targetEntity": "PI3Kδ (Homo sapiens)",
    "inhibition at 0.1 µM [%]": 70.3
  },
  {
    "molecule": "Nc1ncnc2c1c(-c1cc(O)cc(F)c1)nn2CCNCc1ccccc1 [Compound 4]",
    "targetEntity": "PI3Kδ (Homo sapiens)",
    "inhibition at 0.1 µM [%]": 68
  },
  {
    "molecule": "C=CC(=O)N(CCn1nc(-c2cc(O)cc(F)c2)c2c(N)ncnc21)c1ccccc1 [Compound 2]",
    "targetEntity": "PI3Kδ (Homo sapiens)",
    "inhibition at 0.1 µM [%]": 39.1
  },
  {
    "molecule": "C=CC(=O)N(CCn1nc(-c2ccc(Cl)c(O)c2)c2c(N)ncnc21)Cc1ccc(OC)cc1 [Compound 17]",
    "targetEntity": "PI3Kδ (Homo sapiens)",
    "inhibition at 0.1 µM [%]": 41.1
  }
]

Reference for the values: patent US20160272645A1
